System: Citrus Yellow Thrips (Frankliniella occidentalis)
Experiment: Control of citrus yellow thrips on egg plant by combined use with natural enemy pesticide, number of thrips
Assay type: in vivo
Conditions: 100 ppm, spray
As shown below, each of these molecules has a reported Number of parasitic insects per 20 leaves, After 120 days value.
measurement.name: Number of parasitic insects per 20 leaves, After 120 days

- structure.smiles: "Cc1cc(C(F)(F)F)ccc1NC(=O)c1cccc(I)c1C(=O)NC(C)C"
  observed: 52
- structure.smiles: "Cc1cc(C(F)(F)C(F)(F)F)ccc1NC(=O)c1cccc(Cl)c1C(=O)NC(C)C"
  observed: 55
- structure.smiles: "Cc1cc(C(F)(F)C(F)(F)F)ccc1NC(=O)c1cccc(I)c1C(=O)NC(C)C"
  observed: 59
- structure.smiles: "Cc1cc(OC(F)(F)F)ccc1NC(=O)c1cccc(Cl)c1C(=O)NC(C)C"
  observed: 49
- structure.smiles: "CC(C)NC(=O)c1c(I)cccc1C(=O)Nc1ccc(C(F)(F)F)cc1Cl"
  observed: 58
- structure.smiles: "Cc1cc(C(F)(F)C(F)(F)C(F)(F)F)ccc1NC(=O)c1cccc(I)c1C(=O)NC(C)C"
  observed: 50
